test system: K4 kissing-loop RNA reporter; assay: apparent KD of K4 kissing-loop reporter; higher = weaker reporter binding; conditions: Eterna round: R107; input ligand: arginine 13.2 mM;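 also: bound reporter read as fluorescence of individual clusters on recovered sequencing chips by microscopy, with normalized cluster intensities fitted with a binding model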
value type: apparent KD of K4 kissing-loop reporter (nM)
// units = nM; emit number, no label

Some sequences with known apparent KD of K4 kissing-loop reporter results, for comparison:
AGUAGUUGGACGGCCGCCACUAGAACAGCUUUGCCAAAGGCAGAGCACUAGAGUGAUGUUCUAGCUAGGACCGGGUCCAACUACA [Omei KL Tryp B SS A v1]    306
UAUAAUUCGGCGGCCGCCACUGACCAUAGCCUUCGAUGGCCAGUGAUGUUGGCCUCUGGCUCUAACAGGACCGGGCCGAAUUGCG [Aririmaus]    179
UGAUACCAGACGGCCGCCACUCCUGCAGUCAAAGACUGCUAAGGAAUAUUCGUCCAGUGAUGUUGGAGGACCGGGUCUGGUAUCU [TrypBX 12 #SwitchBubble #Palindromic #StaticStem]    991

Lab note: next sequence to report on.
[Q] For the sequence AGUGUUAGGUUAGAUACCAGCCGUCUAUGGAUAAUCCUCAGACCGCCAGUGAUGUUGGCAGGCCCUUGGCAGCUAACAGAACAGA [Reinonor] , what apparent KD of K4 kissing-loop reporter is on record?
[A] 218

* * *

system: MS2 coat protein; test: apparent KD of MS2 coat protein, switch ON state; designed switch direction (-1 OFF switch, 1 ON switch): 1; higher = weaker reporter binding; settings: FMN input: 0 or 200 uM; Eterna round: R93 (includes R88 designs)
Recorded apparent KD of MS2 coat protein, one value per entry.
// units = nM; emit number, no label

Some sequences with known apparent KD of MS2 coat protein results, for comparison:
AAAUAAAUAAGAGAGGAUAUGUCAGAGAAAACAUGAGGAUCACCCAUGUAAUAAUAAAAAGGGUGACAGAAGGCUCAAAACAAAC [Hyphema modified]    32.3
AGGAGACAUGAGGAUCACCCAUGUGCACGUGGAGGAGGAUAUGCUAGUAGAAGAUAGAAAGCAGAAGGCCUAAGAA [mod of top voted: #2]    44.3

Lab note: next sequence to report on.
[Q] For the sequence GGAAGGAAGAGAGAGGAUAUCCAAAGGAAAACAUGAGGAUCACCCAUGUAAAAGGUAGGAAAUUGGGAGAAGGCUCAAAAGAGAG [salish99-ss2-036] , what apparent KD of MS2 coat protein is on record?
[A] 18.6

* * *

tested on: MS2 coat protein; test: apparent KD of MS2 coat protein; designed switch direction (-1 OFF switch, 1 ON switch): -1; higher = weaker reporter binding; settings: input ligand: FMN 200 uM
value type: apparent KD of MS2 coat protein

Some sequences with known apparent KD of MS2 coat protein results, for comparison:
AAGAUGUAAGGAUAUGCUGCUCGUCACAAAAGUGAUGAGUAGCAGAAGGUACAUGAGGAUCACCCAUGUAGAGA [Opal 38] (Eterna round: R96, puzzle: Exclusion 4)    60.6 nM
AUAAUGUAAGGAUAUCAGUCGUACAGCCUCGGCUGUACGACUGAGAAGGUACAUGAGGAUCACCCAUGUGAUCA [E4/8-A2] (Eterna round: R97, puzzle: Exclusion 4)    98.4 nM
AUUGAUGUUGAGGAUAUGCUUUUAUUUAUAAUAGCAGAAGGCGAUACAUGAGGAUCACCCAUGUUCAUGGUAGU [JR_E6_Sub095] (Eterna round: R96, puzzle: Exclusion 6)    77.6 nM
GUAAAACAUGUAGGAUAUGCGUGGCAAAGCUAUGCAGAAGGACAUGAGGAUCACCCAUGUUAAAGCGUCUGCGUACAGAUGCAA [Mat - Exclusion NG 1 - Mod of JL - D95] (Eterna round: R96, puzzle: Exclusion NG 1)    143 nM
UUGUCGGCAGGAUAUACAUGAGGAUCACCCAUGUAAAUUUUUCGUUUAACUUGAAUGUGUAGAAGGGCCAUGUU [Ex3 #71] (Eterna round: R97, puzzle: Exclusion 3)    35.3 nM
AUAUCGUGAGGAUAUCCAAUAUAUGACAUGAGGAUCACCCAUGUUUCCACUCGUACCUCCGGAGAAGGCACAGUUU [Ex5 #71] (Eterna round: R97, puzzle: Exclusion 5)    22.4 nM
ACUCAAUAGUAGGAUAUCAUCAAACUAUUGUGAUGAGAAGGACUAACAUGAGGAUCACCCAUGUUAACGUGAAG [Mod of Brourd 4 - Jieux - Exclusion 6] (Eterna round: R97, puzzle: Exclusion 6)    23 nM
ACAUGAGGAUCACCCAUGUGACCACAAUGGCUGAUGUAACAACAGGAUAUGCGUGAAUAUCUAACGCAGAAGGGUUUUGACUGG [Deportation 59 - Jieux - Exclusion NG 3] (Eterna round: R96, puzzle: Exclusion NG 3)    84.5 nM
UUGGUUGUGGUAGGAUAUCCGUUGGAAACCUUCGGAGAAGGACCACAGUCACUGGGUCUUUGUCUGGUGGACGGUGAAAACCGU [pwkr exNG1 F6.22] (Eterna round: R96, puzzle: Exclusion NG 1)    138 nM
GAUGUACAUGAGGAUCACCCAUGUCAGGAUAUUAGGCGCCCUCAUAGCAGGGCCAUGAUGAGAAGGGACAGUAC [Eternabot (L2) Solution 33] (Eterna round: R97, puzzle: Exclusion 1)    67.6 nM

[Q] I'm curious: which apparent KD of MS2 coat protein was measured for CAGUACUGAGGAUAUACAUGAGGAUCACCCAUGUGAGUGAUACUAGUGAGGUCGAUUAGUAGAAGGCAGUACUG [Mat X3R4 m27] (Eterna round: R97, puzzle: Exclusion 3) tested on MS2 coat protein?
[A] 1110 nM

[Q] I'm curious: which apparent KD of MS2 coat protein was measured for CAUUGUUAUCGAGGAUAUCCUAUUGAGAUUCUAGGAGAAGGCGGACUAAACAUGAGGAUCACCCAUGUGGGACGGAUGCUAGGG [Ex NG1 #30] (Eterna round: R96, puzzle: Exclusion NG 1) tested on MS2 coat protein?
[A] 31.4 nM

[Q] I'm curious: which apparent KD of MS2 coat protein was measured for GUCCUGGACUAUCACAAGCACAUGAGGAUCACCCAUGUCAUGGGUAGAUCCCUAAAUAAAGAUACUGCUCGUCUUAU [Cac sensor turnoff var1 sub6] (Eterna round: R97, puzzle: Sensor, turn-off variant 1) tested on MS2 coat protein?
[A] 160 nM

[Q] I'm curious: which apparent KD of MS2 coat protein was measured for GUUGUUUAUGUAGGAUAUGCCAGGCGAGCCUAAGCAGAAGGACAUGAGGAUCACCCAUGUAUUGCGGUCUGCGUUCAGAUCGCU [salish99_ExNG1_r4_017] (Eterna round: R96, puzzle: Exclusion NG 1) tested on MS2 coat protein?
[A] 63.5 nM

[Q] I'm curious: which apparent KD of MS2 coat protein was measured for CAGUACUGAGGAUAUACAUGAGGAUCACCCAUGUGUUCCAGCUAGGGAACUAGCAAAAGUAGAAGGCAGUACUG [salish99_ex3_r3_075] (Eterna round: R96, puzzle: Exclusion 3) tested on MS2 coat protein?
[A] 455 nM

[Q] I'm curious: which apparent KD of MS2 coat protein was measured for CAGUACAGAGGAUAUACAUGAGGAUCACCCAUGUGUUUCAGCAUCGAAAGAUGCGAAUGUAGAAGGCUGUACUG [jl-ex3-4.26 salish99 mod] (Eterna round: R97, puzzle: Exclusion 3) tested on MS2 coat protein?
[A] 313 nM

[Q] I'm curious: which apparent KD of MS2 coat protein was measured for GACCAAUAGGUAGGAUAUCAUUGCGAUUAGCUAUGAGAAGGACCACAUGAGGAUCACCCAUGUCCUCUAAUUAGCCAAUUGGUA [8th something] (Eterna round: R96, puzzle: Exclusion NG 1) tested on MS2 coat protein?
[A] 426 nM

[Q] I'm curious: which apparent KD of MS2 coat protein was measured for GUCUAGAGAGGAUAUAUUUACAGUGUACGUCGGAUGAUUGCACUUGAGGAUCACCCAAGUAGAAGGCUCGAGGG [EX2 #32] (Eterna round: R97, puzzle: Exclusion 2) tested on MS2 coat protein?
[A] 457 nM

* * *

test system: MS2 coat protein; experiment: apparent KD of MS2 coat protein; designed switch direction (-1 OFF switch, 1 ON switch): -1; higher = weaker reporter binding; conditions: input ligand: none
Recorded apparent KD of MS2 coat protein, one value per entry.
// units = nM; emit number, no label

Some sequences with known apparent KD of MS2 coat protein results, for comparison:
UAGAUGGGAGGAUAUGCAUAGAUACAGAUUCAUGUAGUGCUACAUGAGGAUCACCCAUGUAGAAGGCCCGUCUU [JL-ex2-2.20 Mayanne mod] (Eterna round: R96, puzzle: Exclusion 2)    24.1
UAACAAGCUUAAAGAUCCUACAUGAGGAUCACCCAUGUGCUCGUCUUAUAACGUACUGUGACGAAAGUCACGGUACG [JL TOV1 3.14] (Eterna round: R97, puzzle: Sensor, turn-off variant 1)    395
GGAAGCAAGGAAUAACUAAACAUGAGGAUCACCCAUGUAGAGCCCAUGUGCACGCAAAGCGUGCAAGCUCGUCUUAU [AK-miRNA-r3-17] (Eterna round: R97, puzzle: Sensor, turn-off variant 1)    80.8

[Q] I'm curious: which apparent KD of MS2 coat protein was measured for AGUUAAGCAGGAUAUAUCCGGGAUAACAUGAGGAUCACCCAUGUGACCGCUUGAUAUCCUAUAGAAGGGCUUAAGA [Mod of ViennaUCT 25 - Jieux - Exclusion 5] (Eterna round: R97, puzzle: Exclusion 5) tested on MS2 coat protein?
[A] 27.4
